- assay.summary: Phase 1 drug-drug interaction study, vadadustat as perpetrator with adefovir (Arm 2)
- Format: in vivo, human
- details: both sexes, human, plasma, oral; adefovir 10 mg single dose with vadadustat 600 mg QD (Day 7); read-out: AUClast, geometric LSM, Treatment V + A
measured.attribute: AUC(0-t) (ng·h/mL)

> print(dat)
                 line.notation     unit  reported.result
1  Nc1ncnc2c1ncn2CCOCP(=O)(O)O  ng·h/mL              227

---

- assay.summary: Phase I drug-drug interaction study with probenecid (Part 1, Arm 2)
- Format: in vivo, human
- details: both sexes, human, plasma, oral; vadadustat 300 mg single dose + probenecid 500 mg Q12h (multiple doses), fasted; read-out: AUCinf, geometric LSM, Treatment V + P
measured.attribute: AUC(0-inf) (µg·h/mL)

> print(dat)
                                   compound  reported.result
1  O=C(O)CNC(=O)c1ncc(-c2cccc(Cl)c2)cc1O [Compound 1]              427

---

- assay.summary: Phase I drug-drug interaction study with sevelamer carbonate
- Type: in vivo, human
- details: human, plasma, oral, 300 mg, vadadustat 300 mg alone, immediately after breakfast; median (minimum, maximum)
measured.attribute: Tmax (h)

> print(dat)
                                   molecule  unit  reported.result
1  O=C(O)CNC(=O)c1ncc(-c2cccc(Cl)c2)cc1O [Compound 1]     h             3.97

---

- assay.summary: Phase I drug-drug interaction study with sevelamer carbonate
- Type: in vivo, human
- details: human, plasma, oral, vadadustat 300 mg fasting, 1 hour prior to sevelamer carbonate 1600 mg; mean ± SD; read-out: AUC0-∞
measured.attribute: AUC(0-inf) (µg·h/mL)

> print(dat)
                                   compound  measured.attribute  reported.result
1  O=C(O)CNC(=O)c1ncc(-c2cccc(Cl)c2)cc1O [Compound 1]          AUC(0-inf)              156

---

- assay.summary: Phase I drug-drug interaction study with probenecid (Part 1, Arm 2)
- Type: in vivo, human
- details: both sexes, human, plasma; vadadustat 300 mg alone, single oral dose, fasted; read-out: AUCinf, geometric LSM, Treatment V
- Protocol: A phase I, open-label, 2-part study was conducted in healthy male and female subjects to evaluate the potential for interaction of cyclosporine (Part 1, Arm 1), probenecid (Part 1, Arm 2), and rifampin (Part 2) with vadadustat. On the morning of Day 1, subjects received a single oral dose of vadadustat (300 mg) as 2×150 mg tablets after at least a 10-hour overnight fast and remained fasted for at least 4 hours post-dose. […]
measured.attribute: AUC(0-inf) (µg·h/mL)

> print(dat)
                           line.notation     unit  reported.result
1  O=C(O)CNC(=O)c1ncc(-c2cccc(Cl)c2)cc1O  µg·h/mL              234

---

- assay.summary: Phase I drug-drug interaction study with cyclosporine (Part 1, Arm 1)
- Assay type: in vivo, human
- details: both sexes, human, plasma; vadadustat 300 mg alone, single oral dose, fasted; read-out: AUCinf, geometric LSM, Treatment V
measured.attribute: AUC(0-inf) (µg·h/mL)

> print(dat)
                           line.notation     unit  reported.result
1  O=C(O)CNC(=O)c1ncc(-c2cccc(Cl)c2)cc1O  µg·h/mL              251

Source of measurements: patent US20240148707A1
